Hey, just so you know, these numbers are from ChEMBL document CHEMBL5537109.

Measured CC50 at 48 h values are reported for all entries that follow.
# MEASUREMENT_NOTES: Cytotoxicity against MDCK cells assessed as inhibition of cell growth incubated for 48 hrs by MTT assay
# Assay type: toxicity, cell-based, Canis lupus familiaris
# EXPERIMENTAL_PARAMETERS: dog
Note: unit µM is implicit; provide only the numeric part.

O=C(OC[C@H]1O[C@@H](Oc2ccc(O)cc2C(=O)O)[C@H](O)[C@@H](OC(=O)c2cc(O)c(O)c(O)c2)[C@@H]1O)c1cc(O)c(O)c(O)c1 :: 964

The compound listed as O=C(OC[C@H]1O[C@@H](Oc2ccc(O)cc2C(=O)O)[C@H](OC(=O)c2cc(O)c(O)c(O)c2)[C@@H](O)[C@@H]1O)c1cc(O)c(O)c(O)c1 shows CC50 at 48 h equal to 835

###

# System: Human alphaherpesvirus 1
# MEASUREMENT_NOTES: Antiviral activity against HSV-1 infected in African green monkey Vero cells by plaque reduction assay
# Type: functional, organism-based
# EXPERIMENTAL_PARAMETERS: Human alphaherpesvirus 1, Vero
PROPERTY_NAME: EC50
// return the numeric value with its unit appended

Field EC50 (entry CCCCCCCCCc1oc2c(O)ccc(-c3oc4cc(O)cc(O)c4c(=O)c3O[C@@H]3O[C@H](CO)[C@H](O)[C@H](O)[C@H]3O)c2c1C=O ) reads 23.5 µM

###

# SUBJECT_OF_TEST: Human immunodeficiency virus type 1 reverse transcriptase (Human immunodeficiency virus 1)
# MEASUREMENT_NOTES: Inhibition of HIV-1 NL4-3 reverse transcriptase by RT-PCR analysis
PROPERTY_NAME: IC50

Tested on Human immunodeficiency virus type 1 reverse transcriptase (Human immunodeficiency virus 1): COc1ccc(C[C@@H](CO)[C@H](COC(C)=O)Cc2ccc(OC)c(OC)c2)cc1OC . Observed IC50: 12.2 µM
